Biological target: histone deacetylase (HeLa nuclear extracts)
Test: In vitro assay for inhibition of histone deacetylase
Assay type: biochemical
Conditions: [3H]acetylated histone H4 peptide substrate
measured_endpoint: Enzyme activity pIC50

Cc1ccccc1-c1ccc(S(=O)(=O)N2CCN(c3ncc(C(=O)NO)cn3)CC2)cc1	7.797
NC(=O)C1CN(c2ncc(C(=O)NO)cn2)CCN1S(=O)(=O)c1ccc2ccccc2c1 (stereo not shown)	6.741
CCCc1ccc(S(=O)(=O)N2CCN(c3ccc(C(=O)NO)cc3)CC2)cc1	6.215
CC(C)N(C)Cc1cccc(-c2ccc(S(=O)(=O)N3CCN(c4ncc(C(=O)NO)cn4)CC3)cc2)c1	8.227
CC(C)(C)c1ccc(-c2ccc(S(=O)(=O)N3CCN(c4ncc(C(=O)NO)cn4)CC3)cc2)cc1	6.494
O=C(NO)c1cnc(N2CCN(S(=O)(=O)c3ccc(-c4cccc5c4sc4ccccc45)cc3)CC2)nc1	6.159
CN(C)CCN(C)Cc1ccccc1-c1ccc(S(=O)(=O)N2CCN(c3ncc(C(=O)NO)cn3)CC2)cc1	8.61
O=C(NO)c1cnc(N2CCN(S(=O)(=O)c3ccc(-c4ccc(OC(F)(F)F)cc4)cc3)CC2)nc1	7.054
COc1ccc(-c2ccc(S(=O)(=O)N3CCN(c4ncc(C(=O)NO)cn4)CC3)cc2)cc1	7.691
O=C(NO)c1ccc(N2CCN(S(=O)(=O)c3cccc4ccccc34)CC2)cc1	6.873
O=C(NO)c1cnc(N2CCN(S(=O)(=O)c3ccc(-c4cccc5cccnc45)cc3)CC2)nc1	7.561
O=C(NO)c1cnc(N2CCN(S(=O)(=O)c3ccc(-c4ccsc4CN(CCO)CCO)cc3)CC2)nc1	8.06
O=C(NO)c1cnc(N2CCN(S(=O)(=O)c3ccc(-c4ccc(Cl)cc4)cc3)CC2)nc1	7.22
O=C(NO)c1ccc(N2CCCN(S(=O)(=O)c3ccc4ccccc4c3)CC2)cc1	6.482
COc1ccc(-c2ccc(S(=O)(=O)N3CCN(c4ncc(C(=O)NO)cn4)CC3)cc2)c(OC)c1OC	7.662
O=C(NO)c1cnc(N2CCN(S(=O)(=O)c3ccc4c(Cl)cccc4c3)CC2)nc1	7.938
COc1ccc(-c2ccc(S(=O)(=O)N3CCN(c4ncc(C(=O)NO)cn4)CC3)cc2)cc1OC	6.671
O=C(NO)c1cnc(N2CCN(S(=O)(=O)c3ccc(-c4ccc5[nH]ccc5c4)cc3)CC2)nc1	7.162
O=C(NO)c1ccc(N2CCN(S(=O)(=O)c3ccc(Cl)c(Cl)c3)CC2)cc1	5.961
O=C(NO)c1cnc(N2CCN(S(=O)(=O)c3ccc(-c4ccsc4CN4CCN(CCO)CC4)cc3)CC2)nc1	8.156

---

Assay: Kinetic solubility in aqueous media (nephelometry)
Type: physicochemical
Details: phosphate citrate buffer, pH 7.4, aqueous buffer, kinetic from dmso stock, phosphate citrate buffer pH 7.4, turbidity of three dilution steps; read-out: Solubility Score
measured_endpoint: solubility

Recorded results for 2 compounds are shown here.
O=C(NO)c1cnc(N2CCN(S(=O)(=O)c3ccc(-c4ccc(F)cc4F)cc3)CC2)nc1	75.8 to 454 µM
O=C(NO)c1cnc(N2CCN(S(=O)(=O)c3cccs3)CC2)nc1	> 454 µM

[in] // lookup solubility for "O=C(NO)c1cnc(N2CCN(S(=O)(=O)c3ccc(-c4cccc(CN5CCCC5)c4)cc3)CC2)nc1"
[out] > 454 µM

[in] // lookup solubility for "CN1CCN(Cc2cccc(-c3ccc(S(=O)(=O)N4CCN(c5ncc(C(=O)NO)cn5)CC4)cc3)c2)CC1"
[out] > 454 µM

[in] // lookup solubility for NC(=O)C1CN(c2ncc(C(=O)NO)cn2)CCN1S(=O)(=O)c1ccc2ccccc2c1 (centres unmarked)
[out] > 454 µM

[in] // lookup solubility for "O=C(NO)c1cnc(N2CCN(S(=O)(=O)c3ccc(-c4ccoc4)cc3)CC2)nc1"
[out] 75.8 to 454 µM

[in] // lookup solubility for "O=C(NO)c1ccc(N2CCN(S(=O)(=O)c3ccc4ccccc4c3)CC2)cc1"
[out] < 75.8 µM

[in] // lookup solubility for "CN(C)Cc1sccc1-c1ccc(S(=O)(=O)N2CCN(c3ncc(C(=O)NO)cn3)CC2)cc1"
[out] > 454 µM

---

Listing of recorded solubility by entry.
Assay: Kinetic solubility in aqueous media (nephelometry)
Format: physicochemical
Details: phosphate citrate buffer, pH 7.4, aqueous buffer, kinetic from dmso stock, phosphate citrate buffer pH 7.4, turbidity of three dilution steps; read-out: Solubility Score

O=C(NO)c1cnc(N2CCN(S(=O)(=O)c3ccc(-c4cccc(CN5CCOCC5)c4)cc3)CC2)nc1	> 454 µM
CC(=O)SCC(=O)c1ccc(N2CCN(S(=O)(=O)c3ccc4ccccc4c3)CC2)cc1	< 75.8 µM
O=C(NO)c1ccc(N2CCN(S(=O)(=O)c3ccc4ccccc4c3)CC2)nc1	> 454 µM

[in] // lookup solubility for "CN(C)CCCOc1ccccc1-c1ccc(S(=O)(=O)N2CCN(c3ncc(C(=O)NO)cn3)CC2)cc1"
[out] < 75.8 µM

---

measured_endpoint: melting point (°C)

Recorded results for 4 compounds are shown here.
CN(C)C(=O)c1ccc(N2CCN(S(=O)(=O)c3ccc4ccccc4c3)CC2)nn1	200
O=C(NO)c1cnc(N2CCN(S(=O)(=O)c3ccc4ccccc4c3)CC2)nc1NO	225
O=C(NO)Nc1ccc(N2CCN(S(=O)(=O)c3ccc4ccccc4c3)CC2)cc1	210
CCOc1nc(N2CCN(S(=O)(=O)c3ccc4ccccc4c3)CC2)ncc1C(=O)NO	197

(P) CN(C)Cc1sccc1-c1ccc(S(=O)(=O)N2CCN(c3ncc(C(=O)NO)cn3)CC2)cc1
(Q) CN(C)CC1CN(c2ncc(C(=O)NO)cn2)CCN1S(=O)(=O)c1ccc2ccccc2c1 (stereo not shown)
[in] Which value of melting point is greater, the one for P or the one for Q ? Write the label of whichever entry you select.
[out] P
(P: 192 °C, Q: 114 °C)

(1) O=C(Nc1ccc(N2CCN(S(=O)(=O)c3ccc4ccccc4c3)CC2)cc1)/C(Cc1ccccc1)=N/O
(2) O=C(NO)c1cnc(N2CCN(S(=O)(=O)c3ccc(-c4ccccc4OCCN4CCCC4)cc3)CC2)nc1 (hydrate or solvate)
[in] Would you kindly point out which of 1 and 2 has the smaller melting point figure? Write the label of whichever entry you select.
[out] 2
(2: 146.9 °C, 1: 226 °C)

(A) O=C(NO)c1cnc(N2CCN(S(=O)(=O)c3ccc4ccccc4c3)CC2)cn1
(B) O=C(NO)c1cnc(N2CCN(S(=O)(=O)c3ccc4ccccc4c3)C(C(=O)NO)C2)nc1 (stereo not shown)
[in] Which value of melting point is greater, the one for A or the one for B ? Write the label of whichever entry you select.
[out] A

(A) O=C(NO)c1ccc(N2CCN(S(=O)(=O)c3ccc4ccccc4c3)CC2)cc1C(F)(F)F
(B) CN(C)c1nc(N2CCN(S(=O)(=O)c3ccc4ccccc4c3)CC2)ncc1C(=O)NO
[in] Which value of melting point is greater, the one for A or the one for B ? Write the label of whichever entry you select.
[out] A

---

Assay: Kinetic solubility in aqueous media (nephelometry)
Assay type: physicochemical
Conditions: phosphate citrate buffer, pH 7.4, aqueous buffer, kinetic from dmso stock, phosphate citrate buffer pH 7.4, turbidity of three dilution steps; read-out: Solubility Score
Listing of recorded solubility by entry.

Recorded results for 2 compounds are shown here.
O=C(NO)c1cnc(N2CCN(S(=O)(=O)c3ccc(-c4ccccc4)cc3)CC2)nc1	75.8 to 454 µM
O=C(NO)c1cnc(N2CCN(S(=O)(=O)c3ccc(-c4ccc(CN5CCN(CCO)CC5)cc4)cc3)CC2)nc1	< 75.8 µM

[in] // lookup solubility for "CN(C)CCc1cccc(-c2ccc(S(=O)(=O)N3CCN(c4ncc(C(=O)NO)cn4)CC3)cc2)c1"
[out] > 454 µM

[in] // lookup solubility for "CN(CCO)Cc1sccc1-c1ccc(S(=O)(=O)N2CCN(c3ncc(C(=O)NO)cn3)CC2)cc1"
[out] > 454 µM

[in] // lookup solubility for "CN(C)c1cccc(-c2ccc(S(=O)(=O)N3CCN(c4ncc(C(=O)NO)cn4)CC3)cc2)c1"
[out] > 454 µM

[in] // lookup solubility for "O=C(NO)c1cnc(N2CCN(S(=O)(=O)c3ccc(-c4cccc5c4oc4ccccc45)cc3)CC2)nc1"
[out] 75.8 to 454 µM

[in] // lookup solubility for "O=C(NO)c1cnc(N2CCN(S(=O)(=O)c3ccc(-c4ccc(CN5CCN(CCOCCO)CC5)cc4)cc3)CC2)nc1"
[out] < 75.8 µM

[in] // lookup solubility for "Cc1noc(C)c1S(=O)(=O)N1CCN(c2ccc(C(=O)NO)cc2)CC1"
[out] > 454 µM

[in] // lookup solubility for "COc1ccc(-c2ccc(S(=O)(=O)N3CCN(c4ncc(C(=O)NO)cn4)CC3)cc2)cc1"
[out] < 75.8 µM

[in] // lookup solubility for "Cc1cc(C)cc(-c2ccc(S(=O)(=O)N3CCN(c4ncc(C(=O)NO)cn4)CC3)cc2)c1"
[out] < 75.8 µM

[in] // lookup solubility for "O=C(NO)c1ccc(N2CCN(S(=O)(=O)c3cccc4ccccc34)CC2)cc1"
[out] < 75.8 µM

[in] // lookup solubility for "O=C(NO)c1ccc(N2CCN(S(=O)(=O)c3ccc(Cl)c(Cl)c3)CC2)cc1"
[out] < 75.8 µM
